procedure summary: Metabolic stability in rat liver microsomes assessed as parent compound remaining measured after 30 mins in presence of NADPH
Format: ADME, microsome
run conditions: read-out: Stability
quantity kind: remaining at 0.5 h (%)
All answers are understood in %, so give the number only.

Record excerpt, results attached:
CCCn1c(Oc2ccc(F)c(F)c2)nc2nc(C3CCCC3)[nH]c2c1=O
75
CCCn1c(OC2CCC(O)C2)nc2nc(C3CCCC3)[nH]c2c1=O (stereo unspecified)
68
CCCn1c(-c2cccc(OC)c2)nc2nc(C3CCCC3)[nH]c2c1=O
82
COc1ccc(CCN(C)CCCC(C#N)(c2ccc(OC)c(OC)c2)C(C)C)cc1OC (stereo unspecified)
68
CCCn1c(Oc2cccnc2C)nc2nc(C3CCCC3)[nH]c2c1=O
78

Let us move to another entry and its remaining at 0.5 h.
Data request: Reported remaining at 0.5 h, molecule C[C@]12CC[C@H]3[C@@H](CCC4=CC(=O)CC[C@@]43C)[C@@H]1CC[C@@H]2O [TESTOSTERONE] : ____
Data returned: 2
